- ASSAY_PROTOCOL: self-splicing fitness, log relative to wild type (ln ratio); higher = more splicing; Tetrahymena group I intron in knt gene, E. coli kanamycin selection, DiMSum; sequences stand for … in CUCUCU…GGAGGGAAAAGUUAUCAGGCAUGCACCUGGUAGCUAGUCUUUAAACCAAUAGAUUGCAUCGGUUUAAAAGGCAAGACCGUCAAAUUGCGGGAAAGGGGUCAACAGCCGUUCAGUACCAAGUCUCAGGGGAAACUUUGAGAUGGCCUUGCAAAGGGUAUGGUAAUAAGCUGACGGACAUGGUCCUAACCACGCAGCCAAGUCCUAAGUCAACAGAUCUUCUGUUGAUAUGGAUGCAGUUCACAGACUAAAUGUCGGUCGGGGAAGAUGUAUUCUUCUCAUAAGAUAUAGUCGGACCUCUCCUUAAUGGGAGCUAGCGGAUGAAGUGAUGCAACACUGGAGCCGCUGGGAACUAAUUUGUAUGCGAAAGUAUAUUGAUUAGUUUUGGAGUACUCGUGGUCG;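 note: selection with 25 µg/mL kanamycin versus none on LB agar overnight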
- ASSAY_CONDITIONS: 37 °C
Each item that follows carries a reported self-splicing fitness (ln).
Give a plain numeric answer without units written out.

// worked examples, self-splicing fitness (ln) included
UGGGAGCAAUAUUACGAAGG; -1.1
AGUCAGCAAUAUUACGAGGC; -0.606
CUCGAGCAAUAUUACGGCAG; -1.03

Sample `AAAGAGCAAUAUUACGCCCU` — what was its self-splicing fitness (ln)?
-0.718

Data request, read-out self-splicing fitness (ln), for `GCCGAGCAAUAUUACGACGC`
-1.08

Which self-splicing fitness (ln) value belongs to `ACUCAGCAAUAUUACGUCAC` ?
-1.97

Quick one: self-splicing fitness (ln) of `UCAGAGCAAUAUUACGCUUG` ?
-0.868

# query: self-splicing fitness (ln) of entry `AAAGAGCAAUAUUACGCUCU`
-2.45

Quick one: self-splicing fitness (ln) of `UGUGAGCAAUAUUACGUUGU` ?
-3.13

----------
- ASSAY_PROTOCOL: self-splicing fitness, log relative to wild type (ln ratio); higher = more splicing; Tetrahymena group I intron in knt gene, E. coli kanamycin selection, DiMSum; sequences stand for … in CUCUCU…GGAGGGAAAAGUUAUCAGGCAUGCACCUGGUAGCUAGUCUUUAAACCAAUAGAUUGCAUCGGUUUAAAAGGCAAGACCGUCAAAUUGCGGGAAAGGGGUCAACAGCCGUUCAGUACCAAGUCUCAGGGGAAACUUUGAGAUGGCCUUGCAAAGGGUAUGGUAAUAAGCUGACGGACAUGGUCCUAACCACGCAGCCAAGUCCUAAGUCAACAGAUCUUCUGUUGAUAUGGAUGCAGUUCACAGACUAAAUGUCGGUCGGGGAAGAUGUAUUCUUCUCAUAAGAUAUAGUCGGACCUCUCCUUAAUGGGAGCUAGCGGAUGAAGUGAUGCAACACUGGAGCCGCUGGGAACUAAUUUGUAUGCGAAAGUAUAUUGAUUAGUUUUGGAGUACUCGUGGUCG
- ASSAY_CONDITIONS: 37 °C
# self-splicing fitness (ln) >= -1 gives Satisfied, anything below gives Not satisfied

ACGCAGCAAUAUUACGUCAG; Not satisfied
UCAUAGCAAUAUUACGGAUA; Not satisfied
AAGAAGCAAUAUUACGUCAG; Not satisfied
CCCUAGCAAUAUUACGACGU; Not satisfied

Please indicate if the recorded self-splicing fitness (ln) for `UACGAGCAAUAUUACGGCUU` meets or exceeds -1.
Not satisfied

Exam item: decide whether the reported self-splicing fitness (ln) for `CCGAAGCAAUAUUACGAUGC` is at least -1.
Not satisfied

Quick check, self-splicing fitness (ln) >= -1? `GACGAGCAAUAUUACGAUGC`
Satisfied

Quick check: does `CAAAAGCAAUAUUACGAGAA` have self-splicing fitness (ln) greater than or equal to -1?
Not satisfied

Hello, I need to know if `CCAUAGCAAUAUUACGGGCG` has measured self-splicing fitness (ln) not below -1. Thanks!
Satisfied

Say whether `UGCAAGCAAUAUUACGGUCG` shows self-splicing fitness (ln) of -1 or more.
Satisfied

Determine whether this sequence has self-splicing fitness (ln) no lower than -1: `AUGCAGCAAUAUUACGGCAG`
Not satisfied

Does the reported self-splicing fitness (ln) for `GAUUAGCAAUAUUACGCGCU` fall at or above the -1 mark?
Not satisfied

Please check the record `ACACAGCAAUAUUACGCCGG` and state if its self-splicing fitness (ln) is at or above -1.
Satisfied

----------
- ASSAY_PROTOCOL: self-splicing fitness, log relative to wild type (ln ratio); higher = more splicing; Tetrahymena group I intron in knt gene, E. coli kanamycin selection, DiMSum; sequences stand for … in CUCUCU…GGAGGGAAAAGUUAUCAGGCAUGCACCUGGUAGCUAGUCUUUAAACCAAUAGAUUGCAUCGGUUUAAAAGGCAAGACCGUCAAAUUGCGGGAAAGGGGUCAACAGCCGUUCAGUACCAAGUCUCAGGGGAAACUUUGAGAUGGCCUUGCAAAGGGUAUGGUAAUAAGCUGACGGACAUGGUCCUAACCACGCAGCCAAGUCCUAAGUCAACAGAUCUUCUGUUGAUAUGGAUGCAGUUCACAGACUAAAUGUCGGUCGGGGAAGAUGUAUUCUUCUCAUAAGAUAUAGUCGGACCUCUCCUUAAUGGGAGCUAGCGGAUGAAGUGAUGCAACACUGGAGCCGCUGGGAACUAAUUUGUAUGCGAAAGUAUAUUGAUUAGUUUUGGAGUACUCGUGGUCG
- ASSAY_CONDITIONS: 37 °C
REPORTED_ENDPOINT: self-splicing fitness (ln)
The reply should be a number, written without any unit.

Below: 5 sequences and their reported self-splicing fitness (ln).
UCGCAGCAAUAUUACGCUGU; -3.02
UUAGAGCAAUAUUACGAGAG; -1.7
UACGAGCAAUAUUACGAUAC; -1.61
GGCUAGCAAUAUUACGUGUG; -0.362
AUCCAGCAAUAUUACGCGAU; -2.42

Query (sequence): `CUCGAGCAAUAUUACGUCCG` ; field requested: self-splicing fitness (ln)
-3.68

Requested read-out: self-splicing fitness (ln). Entry: `UGUUAGCAAUAUUACGGUCU`
-0.963

// query self-splicing fitness (ln) value for entry `CCCCAGCAAUAUUACGAGUG`
-2.92

Item `GGUAAGCAAUAUUACGUACA` has what recorded self-splicing fitness (ln)?
0.294

# input sequence: `GCAUAGCAAUAUUACGUGUC` ; wanted: its self-splicing fitness (ln)
-1.96

Value lookup for self-splicing fitness (ln); key = `CGCGAGCAAUAUUACGCGUU`
-2.74

Suppose we examine the sequence `ACUCAGCAAUAUUACGCGAC` ; what self-splicing fitness (ln) value has been reported?
-1.85

If you can, please state the reported self-splicing fitness (ln) value of `CUAGAGCAAUAUUACGCUGA` .
-2.25

Record request: self-splicing fitness (ln) value, item `GUCAAGCAAUAUUACGGGCA`
-2.97

Which self-splicing fitness (ln) reading was recorded for the sequence `CUUGAGCAAUAUUACGAAGU` ?
-3.38

// query self-splicing fitness (ln) value for entry `UUACAGCAAUAUUACGCAAC`
-2.32

Could you tell me which self-splicing fitness (ln) is on file for `AAGUAGCAAUAUUACGUGGC` ?
-3.29

Report self-splicing fitness (ln) for `UAGGAGCAAUAUUACGAGCC` please.
-2.82

Given `UCCGAGCAAUAUUACGUGUA` , state its recorded self-splicing fitness (ln).
-1.9

Dear colleague, I am looking for the recorded self-splicing fitness (ln) of the following sequence: `GGGCAGCAAUAUUACGGUUC`
-1.93

I have this sequence here, `UACGAGCAAUAUUACGGGCG` , and I need its recorded self-splicing fitness (ln).
-0.902

I would be grateful if you could share the reported self-splicing fitness (ln) for `UGCUAGCAAUAUUACGUCCC` .
-0.521

Which measured self-splicing fitness (ln) value corresponds to `UAAUAGCAAUAUUACGGAAC` ?
-0.714

What value of self-splicing fitness (ln) has been reported for the following sequence? `UCUGAGCAAUAUUACGUAAU`
-2.12

What value of measured self-splicing fitness (ln) is listed for `AUUGAGCAAUAUUACGACUG` ?
-0.882

Dear colleague, I am looking for the recorded self-splicing fitness (ln) of the following sequence: `UCUAAGCAAUAUUACGGCUC`
-1.67

Recorded self-splicing fitness (ln) for `GCCGAGCAAUAUUACGACGA` , please?
-0.792

----------
- ASSAY_PROTOCOL: self-splicing fitness, log relative to wild type (ln ratio); higher = more splicing; Tetrahymena group I intron in knt gene, E. coli kanamycin selection, DiMSum; sequences stand for … in CUCUCU…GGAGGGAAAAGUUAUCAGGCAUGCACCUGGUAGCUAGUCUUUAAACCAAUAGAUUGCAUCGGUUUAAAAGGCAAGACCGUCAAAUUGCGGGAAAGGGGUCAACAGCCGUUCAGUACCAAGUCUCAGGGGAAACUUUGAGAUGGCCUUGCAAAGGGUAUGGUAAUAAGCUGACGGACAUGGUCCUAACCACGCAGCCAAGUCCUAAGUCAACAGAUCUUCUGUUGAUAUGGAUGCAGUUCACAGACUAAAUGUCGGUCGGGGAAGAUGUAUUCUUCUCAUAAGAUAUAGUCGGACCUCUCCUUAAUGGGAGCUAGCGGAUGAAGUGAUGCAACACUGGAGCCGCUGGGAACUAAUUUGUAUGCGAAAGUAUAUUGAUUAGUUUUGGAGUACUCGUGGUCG
- ASSAY_CONDITIONS: 37 °C
REPORTED_ENDPOINT: self-splicing fitness (ln)
Please give the numeric answer without any surrounding text.

Tell me the measured self-splicing fitness (ln) of `ACGCAGCAAUAUUACGCCGC` , please.
-2.42

Which value of self-splicing fitness (ln) has been reported for `GGGAAGCAAUAUUACGGUCU` in the records?
0.382

For the sequence `CGGAAGCAAUAUUACGGGGA` , what self-splicing fitness (ln) is on record?
-2.65

The values you see were collected from the supplement of paper PMC7877785.
